meta.source: patent US20160046684A1

tested on: PTP1B; experiment: Phosphatase activity of PTP1B constructs against pNPP (enzyme assay); type: biochemical, human; conditions: pNPP substrate, pH 7.5, 0.15 μM PTP1B (FIG. 17)
Property name: kcat (s⁻¹)
Your answer should be a plain number; it is taken to be in s⁻¹.

Reported kcat ( PTP1BY152F: PTP1B1-301 mutant with mutation in the L11 loop (protein, UniProt P18031 1-301, looked up, variant Y152F) MEMEKEFEQIDKSGSWAAIYQDIRHEASDFPCRVAKLPKNKNRNRYRDVSPFDHSRIKLHQEDNDYINASLIKMEEAQRSYILTQGPLPNTCGHFWEMVWEQKSRGVVMLNRVMEKGSLKCAQYWPQKEEKEMIFEDTNLKLTLISEDIKSFYTVRQLELENLTTQETREILHFHYTTWPDFGVPESPASFLNFLFKVRESGSLSPEHGPVVVHCSAGIGRSGTFCLADTCLLLMDKRKDPSSVDIKKVLLEMRKFRMGLIQTADQLRFSYLAVIEGAKFIMGDSSVQDQWKELSHEDLEP ) = 3.4

Reported kcat ( PTP1BY153F: PTP1B1-301 mutant with mutation in the L11 loop (protein, UniProt P18031 1-301, looked up, variant Y153F) MEMEKEFEQIDKSGSWAAIYQDIRHEASDFPCRVAKLPKNKNRNRYRDVSPFDHSRIKLHQEDNDYINASLIKMEEAQRSYILTQGPLPNTCGHFWEMVWEQKSRGVVMLNRVMEKGSLKCAQYWPQKEEKEMIFEDTNLKLTLISEDIKSYFTVRQLELENLTTQETREILHFHYTTWPDFGVPESPASFLNFLFKVRESGSLSPEHGPVVVHCSAGIGRSGTFCLADTCLLLMDKRKDPSSVDIKKVLLEMRKFRMGLIQTADQLRFSYLAVIEGAKFIMGDSSVQDQWKELSHEDLEP ) = 3.4

Reported kcat ( PTP1BY152A: PTP1B1-301 mutant with mutation in the L11 loop (protein, UniProt P18031 1-301, looked up, variant Y152A) MEMEKEFEQIDKSGSWAAIYQDIRHEASDFPCRVAKLPKNKNRNRYRDVSPFDHSRIKLHQEDNDYINASLIKMEEAQRSYILTQGPLPNTCGHFWEMVWEQKSRGVVMLNRVMEKGSLKCAQYWPQKEEKEMIFEDTNLKLTLISEDIKSAYTVRQLELENLTTQETREILHFHYTTWPDFGVPESPASFLNFLFKVRESGSLSPEHGPVVVHCSAGIGRSGTFCLADTCLLLMDKRKDPSSVDIKKVLLEMRKFRMGLIQTADQLRFSYLAVIEGAKFIMGDSSVQDQWKELSHEDLEP ) = 3.0

Reported kcat ( PTP1BY153A: PTP1B1-301 mutant with mutation in the L11 loop (protein, UniProt P18031 1-301, looked up, variant Y153A) MEMEKEFEQIDKSGSWAAIYQDIRHEASDFPCRVAKLPKNKNRNRYRDVSPFDHSRIKLHQEDNDYINASLIKMEEAQRSYILTQGPLPNTCGHFWEMVWEQKSRGVVMLNRVMEKGSLKCAQYWPQKEEKEMIFEDTNLKLTLISEDIKSYATVRQLELENLTTQETREILHFHYTTWPDFGVPESPASFLNFLFKVRESGSLSPEHGPVVVHCSAGIGRSGTFCLADTCLLLMDKRKDPSSVDIKKVLLEMRKFRMGLIQTADQLRFSYLAVIEGAKFIMGDSSVQDQWKELSHEDLEP ) = 3.6
